Record form. Attribute: EC50. Fill in for each entry.
- Test System: T1, ROR1 naturally expressed on human tumor cell lines (A549, Jeko-1, SW620, PA-1) (human, UniProt Q01973 30-937)
- T1 construct: whole, on cells; also called cells expressing ROR1
- T1 sequence (Q01973 30-937): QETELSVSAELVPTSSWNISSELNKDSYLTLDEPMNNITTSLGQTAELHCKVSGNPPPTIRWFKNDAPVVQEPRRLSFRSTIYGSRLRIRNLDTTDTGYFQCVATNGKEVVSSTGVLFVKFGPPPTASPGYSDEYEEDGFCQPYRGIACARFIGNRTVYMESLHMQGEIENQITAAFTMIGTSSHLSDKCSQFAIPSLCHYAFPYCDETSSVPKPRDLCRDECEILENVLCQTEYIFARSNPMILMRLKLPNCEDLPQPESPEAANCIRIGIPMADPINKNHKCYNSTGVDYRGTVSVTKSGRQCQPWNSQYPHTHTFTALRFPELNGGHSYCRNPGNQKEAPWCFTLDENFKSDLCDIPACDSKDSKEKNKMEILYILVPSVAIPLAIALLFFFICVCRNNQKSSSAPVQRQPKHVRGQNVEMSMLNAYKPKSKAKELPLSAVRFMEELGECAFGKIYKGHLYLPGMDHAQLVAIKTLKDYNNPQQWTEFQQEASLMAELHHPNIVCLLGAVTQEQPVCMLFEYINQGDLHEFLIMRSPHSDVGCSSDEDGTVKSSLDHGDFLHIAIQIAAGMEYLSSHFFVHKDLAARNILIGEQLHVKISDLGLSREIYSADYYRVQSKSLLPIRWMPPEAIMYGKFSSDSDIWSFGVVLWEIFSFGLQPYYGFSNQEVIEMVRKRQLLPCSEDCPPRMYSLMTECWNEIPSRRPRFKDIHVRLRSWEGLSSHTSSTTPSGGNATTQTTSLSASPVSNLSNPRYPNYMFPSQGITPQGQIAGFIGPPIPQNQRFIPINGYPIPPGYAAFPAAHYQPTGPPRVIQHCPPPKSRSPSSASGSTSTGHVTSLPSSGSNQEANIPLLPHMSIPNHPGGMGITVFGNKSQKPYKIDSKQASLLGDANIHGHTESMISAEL
- Test Description: FACS on Jeko-1 cells naturally expressing ROR1
Quick reminder: number only, in nM, skip the unit.

Per the record, hz29H5D8-3.2 (antibody, human IgG1, kappa, V domains shown, Humanized, human IgG1/kappa) VH: QVQLVQSGAEVKKPGSSVKVSCKASGYTFTNYGISWVRQAPGQGLEWMGEIYPRSVNTYYSAKFKGRVTITADKSTSTAYMELSSLRSEDTAVYYCARHYYGSSLDYWGQGTLVTVSS VL: DIQMTQSPSSLSASVGDRVTITCITSSDIEDDMNWYQQKPGKAPKLLISEGNSLRPGVPSRFSSSGYGTDFTFTISSLQPEDIATYYCLQSDNIFTFGQGTKVEIKR has EC50 of 0.012

The reported value for UC-961 (antibody, V domains shown) VH: QVQLQESGPGLVKPSQTLSLTCTVSGYAFTAYNIHWVRQAPGQGLEWMGSFDPYDGGSSYNQKFKDRLTISKDTSKNQVVLTMTNMDPVDTATYYCARGWYYFDYWGHGTLVTVSS VL: DIVMTQTPLSLPVTPGEPASISCRASKSISKYLAWYQQKPGQAPRLLIYSGSTLQSGIPPRFSGSGYGTDFTLTINNIESEDAAYYFCQQHDESPYTFGEGTKVEIK in terms of EC50 is 0.021

For hz29H5D8-2.1 (antibody, human IgG1, kappa, V domains shown, Humanized, human IgG1/kappa) VH: QVQLVQSGAEVKKPGSSVKVSCKASGYTFTNYGISWVRQAPGQGLEWMGEIYPRSVNTYYAQKFQGRVTITADKSTSTAYMELSSLRSEDTAVYYCARHYYGSSLDYWGQGTLVTVSS VL: DIQMTQSPSSLSASVGDRVTITCITSSDIEDDMNWYQQKPGKAPKLLIYEGNSLRPGVPSRFSSSGYGTDFTFTISSLQPEDIATYYCLQSDNIFTFGQGTKVEIKR the binder record lists EC50 as 0.015
